In this section, each of the compounds is paired with its reported AC50.
Tested on: HMLE_sh_eGFP viability, CellTiter-Glo luminescence, 72 h
Experiment: cytotoxicity in HMLE control line with eGFP shRNA, dose response, counter-screen for HMLE_sh_ECad selective toxicity project, cell-based, HMLE_sh_eGFP, luminescence (AID 463074);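 also: counterscreen control line to flag general toxicity for the HMLE_sh_ECad screen; potency for loss of viability as luminescence drops below DMSO wells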
Activity calls are given as the source filed them.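 The calls were made as follows: active = AC50 no more than tenfold above the top dose tested, or full inhibition at every dose with a flat fit (cut at about 19 µM in these data); inconclusive = flat curve fit with inhibition between 30% and 70%, or poor fit; inactive = AC50 more than tenfold above the top dose tested.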

Known AC50 results, listed for orientation:
{"columns": ["compound", "AC50"],
 "data": [
  ["COC(=O)c1c(NC(=O)Cc2cccs2)sc2c1CCC(C)C2 (stereo not given)", "9.75 µM"],
  ["CCCCCCSc1cccc(-c2nc3ccc(Cl)cn3c2NCc2ccccc2)c1", "3.12 µM"],
  ["COc1ccc(NS(=O)(=O)c2cccc(C(=O)N/N=C(\\C)c3ccc(-n4ccnc4)cc3)c2)cc1", "> 19.5 µM (inactive)"],
  ["O=C(Nc1cccc(S(=O)(=O)Nc2ccc(Cl)cc2)c1)c1cc2c(s1)CCCC2", "2.79 µM"],
  ["C/C(NC(=O)c1cccc(F)c1)=C1/C(=O)C[C@@H]2[C@H]1C2(C)C", "2.13 µM"]
]}

Per the record, `COc1cc(S(=O)(=O)N2CCCCCC2)c(OC)cc1Br` has AC50 of 2.55 µM

Sourced from PubChem BioAssay AID463074
